molecular target: MaxL homodimer (Homo sapiens, UniProt P61244 1-160); assay: universal protein-binding microarray (PBM); PBS-based mixture, 10 nM His-tagged protein dimer, 2% milk, 200 ng/uL BSA, 50 ng/uL salmon testes DNA, 0.02% TX-100; detection with Alexa 488 anti-His antibody;; high values mean tight binding; settings: protein: recombinant; tags: C-terminal His-tag (pET21a); chain copies: 2; dsDNA, one strand shown;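 further: fluorescence intensity normalized to that of the highest-ranked 8-mer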
Sequence (P61244 whole entry): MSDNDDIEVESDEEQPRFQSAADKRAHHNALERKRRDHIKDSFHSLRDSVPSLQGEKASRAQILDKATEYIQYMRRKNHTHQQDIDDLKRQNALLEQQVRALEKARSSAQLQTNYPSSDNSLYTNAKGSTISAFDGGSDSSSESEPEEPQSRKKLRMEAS
Whole data set: some 33,000 sequences, median “normalized occupancy” near 0.075, cut for the highest 2% near 0.095. This is one part of a sample in which the highest values are shown more often than they occur.
measurement-name: binding signal (normalized occupancy)
Give your result in normalized occupancy as a bare value.

Query :: Give reported binding signal value for TTGAGAAA
Result :: 0.0807

Query :: Give reported binding signal value for TTCTCAAA
Result :: 0.0808

Query :: Give reported binding signal value for GGTGGTAA
Result :: 0.0793

Query :: Give reported binding signal value for GATGCCCA
Result :: 0.0798
